The entries below are paired with their reported cell viability.
System: SEM cells
Assay: cell viability relative to DMSO control; higher = less cytotoxic
Details: RPMI 5 mM glucose + 10% FBS; 48 h; 15.4 µM
Dear colleague, please return just the value in %, with no unit written.

Prompt line: Param readout = cell viability; param system = SEM cells; param query = COC[C@H]1OC(=O)C2=COC3=C2[C@@]1(C)\C4=C(C5CCC(=O)[C@@]5(C)C[C@H]4OC(C)=O)/C3=O (some centres undefined) ; response: value
Response line: 92.2

Prompt line: Now the same for CC(=O)O[C@H]1C(=O)[C@]2(C)[C@@H](O)C[C@H]3OC[C@@]3(OC(C)=O)C2[C@H](OC(=O)C4=CC=CC=C4)[C@]5(O)C[C@H](OC(=O)[C@H](O)[C@@H](NC(=O)C6=CC=CC=C6)C7=CC=CC=C7)\C(=C1/C5(C)C)C (some centres undefined)
Response line: 15.6

Prompt line: // repeat for `O=C(OC)[C@]12CC[C@@]3(C)[C@]4(C)CC[C@H]5[C@@](C)(C)C(=O)C(=C[C@]5(C)C4=CC(=O)[C@@H]3[C@@H]2C[C@](C)(C)CC1)C#N` and report
Response line: 3.61

Then this compound:
Prompt line: Notebook entry, SEM cells assay: cell viability of `C[C@H](NC(=O)/C(C#N)=C/c1cccc(Br)n1)c1ccccc1` = ?
Response line: 6.42

###

# cell viability per entry
Tested on: P12-Ichikawa
Assay: cell viability relative to DMSO control; higher = less cytotoxic
Conditions: HPLM + 10% dialyzed FBS; 48 h; 0.0211 µM
Answer in %, number only, no unit symbol.

Prompt line: Give its cell viability value. Item: `CCCCCOC(=O)NC\1=N\C(=O)N(\C=C1F)[C@@H]2O[C@H](C)[C@@H](O)[C@H]2O`
Response line: 103

Prompt line: Same again, this time with COc1cc2nc(N(C)CCCNC(=O)C3CCCO3)nc(N)c2cc1OC (centres undefined)
Response line: 92.3

Prompt line: Further, for `CNC(=O)c1ccc(-c2cnc3ncc(Cc4ccc5ncccc5c4)n3n2)cc1F` ?
Response line: 129

Prompt line: Next up: `CC(=O)N(C)c1cccc(-c2ccnc3c(C(=O)c4cccs4)cnn23)c1`
Response line: 101

Prompt line: What do we get for `O=NN(CCCl)C(=O)NC1CCCCC1` ?
Response line: 96.4

Prompt line: Next compound up: `OC1=C(O)C2=C(\C=C/C(=O)O2)C=C1`
Response line: 107

Prompt line: Now give it for `CCc1cncnc1N1CCN(Cc2nc3cc(C(F)(F)F)ccc3[nH]2)CC1` too.
Response line: 102

Prompt line: Item: `CC(=O)Nc1ccc(OC[C@](C)(O)C(=O)Nc2ccc([N+](=O)[O-])c(C(F)(F)F)c2)cc1`
Response line: 87.8

More entries:
Prompt line: State the recorded cell viability for this entry: `CC/1=C/C(=O)N(O)/C(=C1)C2CCCCC2`
Response line: 132

Prompt line: What do you have for `CC\1=C/C=C\C=[N]1[Pt](N)(Cl)Cl` ?
Response line: 108

Prompt line: One more compound: COc1ccc(CC2NCCc3cc(OC)c(OC)cc32)cc1OC (centres undefined)
Response line: 99.8

Prompt line: Okay, and `CN\1C(=O)/C(=C(\N=C1N2CCCC[S+]2([O-])=O)C(=O)NCC3=CC=C(F)C=C3)O` ?
Response line: 113

Prompt line: Also `Cc1ccc(NC(=O)c2ccc(CN3CCN(C)CC3)cc2)cc1Nc1nc(-c2cccnc2)cs1` , if possible.
Response line: 103

###

Test system: SEM cells
Assay: cell viability relative to DMSO control; higher = less cytotoxic
Settings: HPLM + 10% dialyzed FBS; 48 h; 46.1 µM
We label by threshold. Values of cell viability strictly beneath 90% are T. Values of 90% and up are F.

Completed entries (count: 4):
Prompt line: Please determine if `O=NN(CCCl)C(=O)NC1CCCCC1` is below 90% in terms of cell viability.
Response line: T

Prompt line: // repeat for O=C([O-])C(O)Cc1ccc(O)c(O)c1 (configuration not stated) and report
Response line: T

Prompt line: Thanks! And `C[C@H](O)[C@H]1[C@@H]2[C@H](C)C(=C(\N2C1=O)C(O)=O)/S[C@@H]3CN[C@H](CN[S+](N)([O-])=O)C3` ?
Response line: F

Prompt line: Quick one: `OC[C@H]1O[C@@H](O[C@@H]2[C@@H](CO)O[C@](O)(CO)[C@H]2O)[C@H](O)[C@@H](O)[C@H]1O`
Response line: F

Others:
Prompt line: Is the reported cell viability for `CC1=C(/C=C/C(C)=C/C=C/C(C)=C/C=C/C=C(C)/C=C/C=C(C)/C=C/C2=C(C)CCCC2(C)C)C(C)(C)CCC1` strictly below 90%?
Response line: F

Prompt line: Now consider `CC/C(=C(/c1ccc(O)cc1)c1ccc(OCCNC)cc1)c1ccccc1` and answer again.
Response line: T

Prompt line: And for `CC(=O)O.Cc1c(-c2ccc(O)cc2)n(Cc2ccc(OCCN3CCCCCC3)cc2)c2ccc(O)cc12` ?
Response line: F

Prompt line: What do you get for `O=NN(CCCl)C(=O)NCCCl` ?
Response line: T

Prompt line: One more molecule: `CCc1cc(Nc2nccc(-c3c(-c4ccc(OC)c(C(=O)Nc5c(F)cccc5F)c4)nc4ccccn34)n2)c(OC)cc1N1CCC(N2CCN([S+](C)(=O)[O-])CC2)CC1`
Response line: T

Prompt line: # repeat for `COC(=O)Nc1nc2cc(C(=O)c3cccs3)ccc2[nH]1`
Response line: T

Prompt line: Follow-up entry: `OC1=C(O)C2=C(\C=C/C(=O)O2)C=C1`
Response line: T

Prompt line: Here is the next molecule: CC1CCC(C(=O)N(c2cc(C#CC(C)(C)C)sc2C(=O)O)C2CCC(O)CC2)CC1 (configuration not stated)
Response line: T

###

Test system: SEM cells
Assay: cell viability relative to DMSO control; higher = less cytotoxic
Conditions: RPMI 5 mM glucose + 10% FBS; 48 h; 1.71 µM
Each item that follows carries a reported cell viability.
Write the number in % without appending the unit.

Worked cases, cell viability given:
Prompt line: // returns reported cell viability for input `CC/C(=C(/c1ccc(O)cc1)c1ccc(OCCNC)cc1)c1ccccc1`
Response line: 94.8

Prompt line: Also need `OC1=C(O)C2=C(\C=C/C(=O)O2)C=C1` , thanks.
Response line: 102

Prompt line: Also, `C=C(C)[C@@H]1CC[C@]2(C(=O)O)CC[C@]3(C)[C@H](CC[C@@H]4[C@@]5(C)CC[C@H](O)C(C)(C)[C@@H]5CC[C@]43C)[C@@H]12` please.
Response line: 123

New cases:
Prompt line: Request the reported cell viability associated with O=C(NOCC(O)CO)c1cc(Br)c(F)c(F)c1Nc1ccc(I)cc1F (centres undefined)
Response line: 69.3

Prompt line: Follow-up item: `C\C1=C\C(=O)OC2=C1C=CC(=C2)O`
Response line: 87.3

Prompt line: How about this compound: CN1[C@@H]2CC(OC(=O)[C@@H](CO)c3ccccc3)C[C@H]1[C@H]1O[C@H]12 (some centres undefined)
Response line: 106

Prompt line: Same for `ClC1=C(N\C2=N\CCN2)C3=NSN=C3C=C1`
Response line: 109

Prompt line: Try this compound too: `COc1ccc(Cc2ccc(NC(N)=O)cc2)cc1-c1cccc(Cl)c1`
Response line: 115

Prompt line: Record: `CCc1cncnc1N1CCN(Cc2nc3cc(C(F)(F)F)ccc3[nH]2)CC1`
Response line: 94.7

###

Test system: NOMO1
Assay: cell viability relative to DMSO control; higher = less cytotoxic
Details: RPMI 5 mM glucose + 10% dialyzed FBS; 48 h; 0.0211 µM
Collected cell viability values appear next to each entry.
The answer is to be given in %; state only the numeric part.

Prompt line: Endpoint output: cell viability of `[NH2][Pt]1([NH2])[O]CC(=O)[O]1` . Value?
Response line: 98.1

Prompt line: Continue with `COc1cnc(N[S+](=O)([O-])c2ccc(N)cc2)nc1`
Response line: 125

Prompt line: Further, for CN(C)CCOc1cc(-c2cn[nH]c2)ccc1NC(=O)C1COc2ccccc2O1 (stereo not given) ?
Response line: 112

Prompt line: Continue with `COC(=O)Nc1nc2cc(C(=O)c3cccs3)ccc2[nH]1`
Response line: 101

Prompt line: And for `CC(=O)Nc1ccc(OC[C@](C)(O)C(=O)Nc2ccc([N+](=O)[O-])c(C(F)(F)F)c2)cc1` ?
Response line: 83.1

###

Tested on: NOMO1
Test: cell viability relative to DMSO control; higher = less cytotoxic
Details: RPMI 5 mM glucose + 10% FBS; 48 h; 5.12 µM
Threshold-based label: cell viability under 90% gives true, cell viability not under 90% gives false.

Prompt line: Threshold test, cell viability < 90%: `C[C@@H](NC1=CC=CC=C1C(O)=O)C/2=C/C(=C\N3C(=O)/C=C(\N=C23)N4CCOCC4)C`
Response line: true

More entries:
Prompt line: Does the reported cell viability of COc1ccc(CC2NCCc3cc(OC)c(OC)cc32)cc1OC (stereo not drawn) stay below 90%?
Response line: true

Prompt line: Another compound to look at: `O=NN(CCCl)C(=O)NC1CCCCC1`
Response line: false

Prompt line: Would you kindly repeat that for `CC/C(=C(/c1ccc(O)cc1)c1ccc(OCCNC)cc1)c1ccccc1` ?
Response line: false

Prompt line: Now consider CCN(CC)CC#CCOC(=O)C(O)(c1ccccc1)C1CCCCC1 (stereo not drawn) .
Response line: false

Prompt line: How about this compound: `Oc1ccc2c3c1O[C@H]1c4[nH]c5c(c4C[C@@]4(O)[C@@H](C2)N(CC2CC2)CC[C@]314)C[C@@]1(O)[C@H]2Cc3ccc(O)c4c3[C@@]1(CCN2CC1CC1)[C@H]5O4`
Response line: false
